Values compiled from the RNAGym collection of RNA variant scans (doi:10.7554/elife.80360).

B1: CPEB3 Ribozyme (parent)
chain: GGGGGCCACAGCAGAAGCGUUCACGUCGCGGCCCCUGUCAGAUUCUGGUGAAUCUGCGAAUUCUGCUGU

variants of: B1; assay: self-cleavage, relative activity (ratio to wild type); higher = more cleavage; co-transcriptional
assay_endpoint: self-cleavage
Answers are plain numbers.

[[record]]
mutations = "A8C G28C"
assay_endpoint = "self-cleavage"
quantitative_result = 0.122


Items follow; give self-cleavage for each.
1. G4C U20C
2. G5C U36A
3. A13C U26G
4. A13U U36A

1: 0.0911; 2: 0.0886; 3: 0.113; 4: 0.121
